Note to self: these compounds have log10(IC50) reported for Beta-secretase 1 (Homo sapiens, UniProt P56817) in various publications.
Use the decimal logarithm of IC50 (µM).

>  <compound>
O=C(Nc1nc2ccccc2s1)c1ccc(CSCCCSCc2ccc(C(=O)Nc3nc4ccccc4s3)cc2)cc1

>  <log10(IC50)>
0.85

$$$$
>  <compound>
CCn1sc(=O)n(Cc2cn(Cc3ccc(C(=O)Nc4nc5ccccc5s4)cc3)nn2)c1=O

>  <log10(IC50)>
0.52

$$$$
>  <compound>
O=C(Cc1ccc(Cn2cc(COc3ccc(/N=C4\C(=O)Nc5ccccc54)cc3)nn2)cc1)Nc1nc2ccccc2s1

>  <log10(IC50)>
0.86

$$$$
>  <compound>
COc1ccc(-c2cc(=O)c3c(O)cc(OC)c(-c4cc(-c5cc(=O)c6c(O)cc(OC)cc6o5)ccc4OC)c3o2)cc1

>  <log10(IC50)>
1.24

$$$$

Each compound below has a reported value. Please supply its log10(IC50).
1. COc1ccc(-c2cc(=O)c3c(O)c(-c4cc(-c5cc(=O)c6c(O)cc(OC)cc6o5)ccc4OC)c(OC)cc3o2)cc1
2. O=C(Nc1nc2ccccc2s1)c1ccc(Cn2cc(COc3ccc(C(=O)Nc4nc5ccccc5s4)cc3)nn2)cc1
3. O=C1O[C@H]([C@@H](O)CO)C(OCc2cn(CC3Cc4c([nH]c5ccccc45)CN3)nn2)=C1O (stereo partly shown)
4. N[C@@H](CCC(=O)NNc1c(F)c(F)c(F)c(F)c1F)C(=O)O
5. O=C(C=Cc1ccc([N+](=O)[O-])cc1)Nc1ccc(F)cc1
6. COc1cc(C2CC(=O)c3ccc(OCCOc4ccc(C(=O)c5ccc(CN(C)Cc6ccccc6)cc5)cc4)cc3O2)cc(OC)c1OC (stereo not shown)
7. COC(=O)C1=C(C)[C@@]2(C)C[C@H]3[C@@]4(C)CCC(=O)C(C)(C)[C@@H]4CC[C@]3(C)[C@@](C)(C1=O)C2=O

1.32
0.57
2.77
1.16
0.90
0.19
-1.11
